Origin of values: patent US11718618B2

# ASSAY PROCEDURE: Stability of compounds in human liver microsomes
# Assay type: in vitro ADME
# MEASUREMENT SETUP: both sexes, liver microsomes, pH 7.4; calculated from HLM half-life, human; read-out: HLM Scaled Intrinsic Clearance
Entries and their CLint scaled at 0.5 μM
Express the result in mL/min/kg but write the number alone.

COc1cc2c(cc1OCC1CC(O)(C(F)(F)F)C1)CCN1C[C@@H](CC(C)(C)C)[C@H](O)C[C@H]21 (stereo partly shown) [Compound 4-78]; 6.41

// moving on: another record for CLint scaled at 0.5 μM
Query block: Give the measured CLint scaled at 0.5 μM of COc1cc2c(cc1OCCF)CCN1C[C@@H](CC(C)(C)C)[C@H](O)C[C@H]21 [Compound 4-18] .
Result block: 8.05
